# TEST_SUMMARY: MTT assay, cytotoxicity in human skin cancer cell line
# Type: cell-based
# EXPERIMENTAL_PARAMETERS: human, Cell viability
MEASURED_ENDPOINT: viability at 24 h, 50 µM (%)
One number for each entry, in %.

INSERT INTO results (smiles_text, unit_abbreviation, numeric_value) VALUES
  ('CCCCCCCCCCCCCC[C@@H](O)[C@@H](O)[C@H](CO)NC(C)=O', '%', 1);

Task: Find the recorded viability at 24 h, 50 µM belonging to `CCCCCCCCCCCCCC[C@@H](O)[C@@H](O)[C@@H](N)CO` and report it.
Output: 2

====

# TEST_SUMMARY: MTT assay, combined treatment with UVB irradiation
# Assay type: cell-based, human
# EXPERIMENTAL_PARAMETERS: human, HaCaT cells, 5 μM + UVB 200 J/m^2, 24 hours, HaCaT; read-out: Cell viability
Can you tell me viability at 24 h, 5 µM for the items I'm about to list?
Answer as a quantity: numeral, then unit.

INSERT INTO results (smiles_text, result) VALUES
  ('CCCCCCCCCCCCCC[C@@H](O)[C@@H](O)[C@H](CO)NC(C)=O', '11%');

Field: next molecule
Task: Find the recorded viability at 24 h, 5 µM belonging to `CCCCCCCCCCCCCC[C@@H](O)[C@@H](O)[C@@H](N)CO` and report it.
Output: 28%

====

# TEST_SUMMARY: MTT assay, combined treatment with UVB irradiation
# Type: cell-based, human
# EXPERIMENTAL_PARAMETERS: human, HaCaT cells, 5 μM, no UVB, 24 hours, HaCaT; read-out: Cell viability
Can you tell me viability at 24 h, 5 µM for the items I'm about to list?
Numbers only, in %.

INSERT INTO results (compound, numeric_value) VALUES
  ('CCCCCCCCCCCCCC[C@@H](O)[C@@H](O)[C@@H](N)CO [PS, phytosphingosine]', 85);

Task: Find the recorded viability at 24 h, 5 µM belonging to CCCCCCCCCCCCCC[C@@H](O)[C@@H](O)[C@H](CO)NC(C)=O [NAPS, N-acetyl phytosphingosine] and report it.
Output: 110

====

# TEST_SUMMARY: MTT assay, combined treatment with UVB irradiation
# Assay type: cell-based, human
# EXPERIMENTAL_PARAMETERS: human, HaCaT cells, 1 μM, no UVB, 24 hours, HaCaT; read-out: Cell viability
# Procedure: In order to study the synergistic effect in the cytotoxicity by the cotreatment with administration of the compositions of the present invention and with UVB irradiation, the cell viability is analyzed by MTT assay method in HaCaT cells. […] The medium is removed completely, the cells are suspended in DMSO, and O.D. is measured at 540 nm.
MEASURED_ENDPOINT: viability at 24 h, 1 µM (%)
One number for each entry, in %.

Task: Find the recorded viability at 24 h, 1 µM belonging to `CCCCCCCCCCCCCC[C@@H](O)[C@@H](O)[C@H](CO)NC(C)=O` and report it.
Output: 130

====

Can you tell me viability at 24 h, 7 µM for the items I'm about to list?
# TEST_SUMMARY: MTT assay, cytotoxicity in HUVEC
# Assay type: cell-based, human
# EXPERIMENTAL_PARAMETERS: human
Give bare numbers, in %.

INSERT INTO results (smiles_text, numeric_value) VALUES
  ('CCCCCCCCCCCCCC[C@@H](O)[C@@H](O)[C@@H](N)CO', 19);

Field: next compound
Task: Find the recorded viability at 24 h, 7 µM belonging to `CCCCCCCCCCCCCC[C@@H](O)[C@@H](O)[C@H](CO)NC(C)=O` and report it.
Output: 51

====

# TEST_SUMMARY: MTT assay, cytotoxicity in HUVEC
# Assay type: cell-based, human
# EXPERIMENTAL_PARAMETERS: human
MEASURED_ENDPOINT: viability at 24 h, 3.5 µM (%)
Answers are plain numbers, in %.

INSERT INTO results (smiles_text, measured_endpoint, numeric_value) VALUES
  ('CCCCCCCCCCCCCC[C@@H](O)[C@@H](O)[C@H](CO)NC(C)=O', 'viability at 24 h, 3.5 µM', 66);

Field: next compound
Task: Find the recorded viability at 24 h, 3.5 µM belonging to `CCCCCCCCCCCCCC[C@@H](O)[C@@H](O)[C@@H](N)CO` and report it.
Output: 64

====

# TEST_SUMMARY: MTT assay, combined treatment with UVB irradiation
# Assay type: cell-based, human
# EXPERIMENTAL_PARAMETERS: human, HaCaT cells, 10 μM, no UVB, 24 hours, HaCaT; read-out: Cell viability
MEASURED_ENDPOINT: viability at 24 h, 10 µM (%)
Answers are plain numbers, in %.

INSERT INTO assay_data (smiles_text, unit_abbreviation, numeric_value) VALUES
  ('CCCCCCCCCCCCCC[C@@H](O)[C@@H](O)[C@H](CO)NC(C)=O', '%', 67);

Field: next compound
Task: Find the recorded viability at 24 h, 10 µM belonging to `CCCCCCCCCCCCCC[C@@H](O)[C@@H](O)[C@@H](N)CO` and report it.
Output: 71

====

# TEST_SUMMARY: MTT assay, cytotoxicity in human skin cancer cell line
# Assay type: cell-based
# EXPERIMENTAL_PARAMETERS: human, Cell viability
MEASURED_ENDPOINT: viability at 24 h, 30 µM (%)
Give bare numbers, in %.

Task: Find the recorded viability at 24 h, 30 µM belonging to `CCCCCCCCCCCCCC[C@@H](O)[C@@H](O)[C@H](CO)NC(C)=O` and report it.
Output: 31

====

Can you tell me viability at 24 h, 1 µM for the items I'm about to list?
# TEST_SUMMARY: MTT assay, combined treatment with UVB irradiation
# Assay type: cell-based, human
# EXPERIMENTAL_PARAMETERS: human, HaCaT cells, 1 μM + UVB 200 J/m^2, 24 hours, HaCaT; read-out: Cell viability
# Description: In order to study the synergistic effect in the cytotoxicity by the cotreatment with administration of the compositions of the present invention and with UVB irradiation, the cell viability is analyzed by MTT assay method in HaCaT cells. […] The medium is removed completely, the cells are suspended in DMSO, and O.D. is measured at 540 nm.
Numbers only, in %.

INSERT INTO measurements (smiles_text, numeric_value) VALUES
  ('CCCCCCCCCCCCCC[C@@H](O)[C@@H](O)[C@@H](N)CO', 38);

Task: Find the recorded viability at 24 h, 1 µM belonging to `CCCCCCCCCCCCCC[C@@H](O)[C@@H](O)[C@H](CO)NC(C)=O` and report it.
Output: 27

====

# TEST_SUMMARY: MTT assay, cytotoxicity in human keratinocyte cell line
# Format: cell-based
# EXPERIMENTAL_PARAMETERS: human, Cell viability
MEASURED_ENDPOINT: viability at 24 h, 1 µM (%)
Give bare numbers, in %.

INSERT INTO assay_data (smiles_text, measured_endpoint, numeric_value) VALUES
  ('CCCCCCCCCCCCCC[C@@H](O)[C@@H](O)[C@@H](N)CO', 'viability at 24 h, 1 µM', 97);

Field: next molecule
Task: Find the recorded viability at 24 h, 1 µM belonging to `CCCCCCCCCCCCCC[C@@H](O)[C@@H](O)[C@H](CO)NC(C)=O` and report it.
Output: 103

====

# Tested on: immune cells (T cells, B cells, macrophages, monocytes) from spleen of mice
# TEST_SUMMARY: MTT assay, cytotoxicity in immune cells separated from spleen of mice
# Type: cell-based
MEASURED_ENDPOINT: IC50

Task: Find the recorded IC50 belonging to CCCCCCCCCCCCC/C=C/[C@@H](O)[C@H](CO)NC(C)=O [C2-ceramide, reference compound] and report it.
Output: ~75 µM

====

# TEST_SUMMARY: MTT assay, cytotoxicity in HUVEC
# Format: cell-based, human
# EXPERIMENTAL_PARAMETERS: human
MEASURED_ENDPOINT: viability at 24 h, 15 µM (%)
Numbers only, in %.

INSERT INTO assay_data (smiles_text, numeric_value) VALUES
  ('CCCCCCCCCCCCCC[C@@H](O)[C@@H](O)[C@H](CO)NC(C)=O', 19);

Field: next compound
Task: Find the recorded viability at 24 h, 15 µM belonging to `CCCCCCCCCCCCCC[C@@H](O)[C@@H](O)[C@@H](N)CO` and report it.
Output: 14

====

# TEST_SUMMARY: MTT assay, combined treatment with UVB irradiation
# Assay type: cell-based, human
# EXPERIMENTAL_PARAMETERS: human, HaCaT cells, 3 μM + UVB 200 J/m^2, 24 hours, HaCaT; read-out: Cell viability
MEASURED_ENDPOINT: viability at 24 h, 3 µM (%)
Numbers only, in %.

INSERT INTO assay_data (smiles_text, numeric_value) VALUES
  ('CCCCCCCCCCCCCC[C@@H](O)[C@@H](O)[C@H](CO)NC(C)=O', 17);

Field: next molecule
Task: Find the recorded viability at 24 h, 3 µM belonging to `CCCCCCCCCCCCCC[C@@H](O)[C@@H](O)[C@@H](N)CO` and report it.
Output: 30
